assay: clinical; conditions: human, plasma, oral, 400 mg, Imatinib Cmax, mean ± SD, Cohort 2 (n=6), imatinib 400 mg bid alone, Day -1
property-name: Cmax (ng/mL)

test_smiles=Cc1ccc(NC(=O)c2ccc(CN3CCN(C)CC3)cc2)cc1Nc1nccc(-c2cccnc2)n1 property_name=Cmax recorded_result=2770
